# Assay Comment: Distribution coefficient between octanol and aqueous phase at pH7.2
# Assay type: physicochemical
# Conditions Used: pH 7.2
Measured Endpoint: logD

Examples with their reported logD follow.
1. CCCCCCc1cc(C(=O)Nc2ccc(Br)cc2)c(O)c([N+](=O)[O-])c1	5.96
2. CCCCCCCC(=O)c1ccc(O)c(C(=O)Nc2ccc(Br)cc2)c1	5.88
3. Cc1ccc(O)c(C(=O)Nc2ccc(Br)cc2)c1	4.38
4. CCCc1ccc(O)c(C(=O)Nc2ccc(Br)cc2)c1	5.38

[A] CCCCc1ccc(O)c(C(=O)Nc2ccc(Br)cc2)c1
[B] Cc1cc(C(=O)Nc2ccc(Br)cc2)c(O)c([N+](=O)[O-])c1
Ask: // compare measured logD between A and B ; output the lower one Output the label that corresponds to your choice.
Result: B
(B: 3.46, A: 5.88)

---

# Assay Comment: Partition coefficient is determined in octanol/buffer solution
# Assay type: physicochemical
# Conditions Used: octanol/buffer; read-out: logP
Measured Endpoint: logP

1) CCCCCCc1ccc(O)c(C(=O)Nc2ccc(Br)cc2)c1	7.11
2) CCCCc1ccc(O)c(C(=O)Nc2ccc(Br)cc2)c1	6.09
3) O=C(Nc1ccc(Br)cc1)c1cc(Br)cc(Br)c1O	6.15
4) CCCCCCCC(=O)c1ccc(O)c(C(=O)Nc2ccc(Br)cc2)c1	7.02
5) CCCCCCc1cc(C(=O)Nc2ccc(Br)cc2)c(O)c([N+](=O)[O-])c1	7.56
6) CCCCCCCCCC(=O)c1ccc(O)c(C(=O)Nc2ccc(Br)cc2)c1	8.02

---

# Assay Comment: Dissociation constant is the negative logarithm of the equilibrium coefficient of the neutral and charged forms of the compound
# Type: physicochemical
Measured Endpoint: pKa

1. CCCCCCCC(=O)c1ccc(O)c(C(=O)Nc2ccc(Br)cc2)c1	6.1
2. CCCc1ccc(O)c(C(=O)Nc2ccc(Br)cc2)c1	7.35
3. CCCCCCCCCCCC(=O)c1ccc(O)c(C(=O)Nc2ccc(Br)cc2)c1	6.1
4. CCC(=O)c1ccc(O)c(C(=O)Nc2ccc(Br)cc2)c1	6.1
5. CCCCCCc1ccc(O)c(C(=O)Nc2ccc(Br)cc2)c1	7.35
6. O=C(Nc1ccc(Br)cc1)c1cc(Br)ccc1O [DIBROMSALAN]	6.85
7. Cc1cc(C(=O)Nc2ccc(Br)cc2)c(O)c([N+](=O)[O-])c1	5.6
8. CCCCCCc1cc(C(=O)Nc2ccc(Br)cc2)c(O)c([N+](=O)[O-])c1	5.6
9. CCCCCCCCCC(=O)c1ccc(O)c(C(=O)Nc2ccc(Br)cc2)c1	6.1
10. O=C(Nc1ccc(Br)cc1)c1cc([N+](=O)[O-])ccc1O	5.8
11. CCCCc1ccc(O)c(C(=O)Nc2ccc(Br)cc2)c1	7.35
12. Cc1ccc(O)c(C(=O)Nc2ccc(Br)cc2)c1	7.35
13. O=C(Nc1ccc(Br)cc1)c1cc(Br)cc(Br)c1O [TRIBROMSALAN]	5.85
14. O=C(Nc1ccc(Br)cc1)c1ccccc1O	7.1
15. CCCCCC(=O)c1ccc(O)c(C(=O)Nc2ccc(Br)cc2)c1	6.1

---

# System: Actinomyces israelii
# Assay Comment: In vitro antibacterial activity against Actinomycetes israelii 28360
# Type: functional
# Lookup of reported MIC keyed by entry
Just the number in µg/mL, nothing appended.

Here are 3 compounds together with their reported answers.
1. O=C(Nc1cccc(C(F)(F)F)c1)c1cc(Br)cc(Br)c1O	0.1
2. CCCCCCc1ccc(O)c(C(=O)NCc2ccc(Cl)c(Cl)c2)c1	1
3. CCCCCCCCCCCC(=O)c1ccc(O)c(C(=O)Nc2ccc(Br)cc2)c1	0.5

API: the following record is the query input.
Ask: Which MIC is reported with Actinomyces israelii for this entry: CCCCCCc1ccc(O)c(C(=O)Nc2ccc(Br)cc2)c1 ?
Result: 0.1

---

# Test system: Actinomyces viscosus
# Assay Comment: In vitro antibacterial activity against Actinomyces viscosus M-100-2000
# Type: functional
Measured Endpoint: MIC (µg/mL)

Past entries and their recorded results:
1) CCCCCCc1ccc(O)c(C(=O)NCc2ccc(Cl)c(Cl)c2)c1	0.5
2) CCCCCCCCCCCC(=O)c1ccc(O)c(C(=O)Nc2cccc(C(F)(F)F)c2)c1	0.5
3) CCCCCCCCCC(=O)c1ccc(O)c(C(=O)Nc2nc3ccccc3s2)c1	0.5

[I] CCCCc1ccc(O)c(C(=O)Nc2ccc(Br)cc2)c1
[II] Cc1cc(C(=O)Nc2ccc(Br)cc2)c(O)c([N+](=O)[O-])c1
Ask: I'd appreciate it if you could identify which of I and II has the greater MIC. Could you answer with the label of the item you picked?
Result: II
(II: 45 µg/mL, I: 0.1 µg/mL)

---

# Tested on: Actinomyces israelii
# Assay Comment: In vitro antibacterial activity against Actinomycetes israelii 28360
# Format: functional
Measured Endpoint: MIC (µg/mL)
Numeric only. Scale: µg/mL

Study these solved cases before continuing.
1) CCCCCCCCCC(=O)c1ccc(O)c(C(=O)Nc2ccc([N+](=O)[O-])cc2)c1	0.05
2) CCCCCCc1ccc(O)c(C(=O)NCc2ccc([N+](=O)[O-])cc2)c1	0.1
3) O=C(Nc1ccc(Br)cc1)c1cc(Br)cc(Br)c1O [TRIBROMSALAN]	5

Now take the following compound into account.
Ask: Short answer please: MIC, Actinomyces israelii, entry CCCCCCCCCCCC(=O)c1ccc(O)c(C(=O)Nc2cccc(C(F)(F)F)c2)c1
Result: 0.1

---

# Tested on: Actinomyces viscosus
# Assay Comment: In vitro antibacterial activity against Actinomyces viscosus M-100-2000
# Format: functional
Measured Endpoint: MIC (µg/mL)

1) CCCCCCc1ccc(O)c(C(=O)NCc2cccc([N+](=O)[O-])c2)c1	0.5
2) CCCCCCCCCCCC(=O)c1ccc(O)c(C(=O)Nc2ccc(Br)cc2)c1	0.02
3) CCCCCCCCCC(=O)c1ccc(O)c(C(=O)Nc2ccc([N+](=O)[O-])cc2)c1	0.05

[A] Cc1cc(C)nc(NC(=O)c2cc(Br)cc(Br)c2O)n1
[B] CCCCCCCCCCCC(=O)c1ccc(O)c(C(=O)Nc2ccc([N+](=O)[O-])cc2)c1
[C] Cc1nnc(NC(=O)c2cc(Br)cc(Br)c2O)s1
[D] O=C(Nc1ccc(Br)cc1)c1cc(Br)ccc1O
[E] Cc1cc(C)nc(NC(=O)c2cc(Br)cc(Br)c2O)c1
Ask: Rank the 5 compounds: largest MIC first, smallest last. Put the labels in the requested order and write them down.
Result: A, C, E, D, B

---

# Assay Comment: Observed inhibitory activity against various Actinomycetes strains
# Conditions Used: actinomycetaceae
Measured Endpoint: Log 1/MIC

1. CCCCCCc1ccc(O)c(C(=O)Nc2ccc(Br)cc2)c1	7.58
2. O=C(Nc1ccc(Br)cc1)c1cc([N+](=O)[O-])ccc1O	5.05
3. CCCc1ccc(O)c(C(=O)Nc2ccc(Br)cc2)c1	5.35
4. CCCCCCCC(=O)c1ccc(O)c(C(=O)Nc2ccc(Br)cc2)c1	5.92

---

# Assay Comment: Distribution coefficient between octanol and aqueous phase at pH7.2
# Format: physicochemical
# Conditions Used: pH 7.2
Measured Endpoint: logD

1. O=C(Nc1ccc(Br)cc1)c1cc(Br)ccc1O	4.75
2. O=C(Nc1ccc(Br)cc1)c1cc(Br)cc(Br)c1O	4.78
3. O=C(Nc1ccc(Br)cc1)c1ccccc1O	3.78
4. CCC(=O)c1ccc(O)c(C(=O)Nc2ccc(Br)cc2)c1	3.38
5. CCCCCCCCCCCC(=O)c1ccc(O)c(C(=O)Nc2ccc(Br)cc2)c1	7.88
6. CCCCCCc1ccc(O)c(C(=O)Nc2ccc(Br)cc2)c1	6.88
7. CCCCCC(=O)c1ccc(O)c(C(=O)Nc2ccc(Br)cc2)c1	4.88

[A] O=C(Nc1ccc(Br)cc1)c1cc([N+](=O)[O-])ccc1O
[B] CCCCCCCCCC(=O)c1ccc(O)c(C(=O)Nc2ccc(Br)cc2)c1
Ask: Looking only at measured logD, which entry is lower, A or B ? Selection: enter the item's label.
Result: A

---

# Assay Comment: Observed inhibitory activity against various Actinomycetes strains
# Conditions Used: actinomycetaceae
Measured Endpoint: Log 1/MIC

1) O=C(Nc1ccc(Br)cc1)c1cc(Br)cc(Br)c1O	5.95
2) CCCCCCc1cc(C(=O)Nc2ccc(Br)cc2)c(O)c([N+](=O)[O-])c1	6.02
3) O=C(Nc1ccc(Br)cc1)c1cc(Br)ccc1O	5.87
